Data provenance is paper PMC10247784.

Known RLU, fluorescence trace of a selection of molecules
System: human TAS2R4 (Homo sapiens, UniProt Q9NYW5)
Construct: expressed in transfected cells; host or cells: HEK293T-Gα16gust44
Sequence (Q9NYW5 1-299): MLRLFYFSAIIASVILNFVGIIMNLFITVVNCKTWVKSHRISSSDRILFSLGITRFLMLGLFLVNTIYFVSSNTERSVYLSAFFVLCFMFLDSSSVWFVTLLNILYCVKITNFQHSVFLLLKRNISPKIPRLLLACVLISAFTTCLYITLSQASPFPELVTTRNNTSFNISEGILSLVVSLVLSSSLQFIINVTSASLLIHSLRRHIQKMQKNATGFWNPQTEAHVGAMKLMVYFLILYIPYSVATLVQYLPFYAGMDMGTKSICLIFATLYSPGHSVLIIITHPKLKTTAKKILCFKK
Assay Text: Calcium imaging assay (FLIPR), HEK293T-Gα16gust44 cells transfected with human TAS2R4; also: test concentration or dose not given here
Type: cell-based
Cond: Time (s) 42.781 (TCA, TLCA: 42.782)
Return type: number; implicit unit RLU.

C[C@H](CCC(=O)NCC(=O)O)[C@H]1CC[C@H]2[C@@H]3[C@H](O)C[C@@H]4C[C@H](O)CC[C@]4(C)[C@H]3C[C@H](O)[C@]12C = 820.227
C[C@H](CCC(=O)NCCS(=O)(=O)O)[C@H]1CC[C@H]2[C@@H]3CC[C@@H]4C[C@H](O)CC[C@]4(C)[C@H]3CC[C@]12C = 193.772
C[C@H](CCC(=O)NCCS(=O)(=O)O)[C@H]1CC[C@H]2[C@@H]3[C@H](O)C[C@@H]4C[C@H](O)CC[C@]4(C)[C@H]3C[C@H](O)[C@]12C = 433.94
C[C@H](CCC(=O)O)[C@H]1CC[C@H]2[C@@H]3CC[C@@H]4C[C@H](O)CC[C@]4(C)[C@H]3C[C@H](O)[C@]12C = 273.234

Lab note: molecule C[C@H](CCC(=O)O)[C@H]1CC[C@H]2[C@@H]3[C@H](O)C[C@@H]4C[C@H](O)CC[C@]4(C)[C@H]3C[C@H](O)[C@]12C tested on human TAS2R4 (Homo sapiens, UniProt Q9NYW5); recorded RLU, fluorescence trace was 513.813

Observed RLU, fluorescence trace, human TAS2R4 (Homo sapiens, UniProt Q9NYW5), C[C@H](CCC(=O)O)[C@H]1CC[C@H]2[C@@H]3[C@@H](O)C[C@@H]4C[C@H](O)CC[C@]4(C)[C@H]3CC[C@]12C : 352.031
